tested on: lymphocytes; assay: peptidase activity in leukemia and non-leukemia patients, lymphocytes (Table 6C); format: cell-based, human; set-up: unit not given here; conditions: J4 12/3/91 acute leuk.
Readout kind: enzyme activity, Lymphs

>>> obs_value("CC(C)[C@H](N)C(=O)N[C@@H](CO)C(=O)Nc1ccc2c(c1)Oc1cc(NC(=O)[C@H](CO)NC(=O)[C@@H](N)C(C)C)ccc1C21OC(=O)c2ccccc21 [VS, (H-L-Val--Ser)2 Rho 110 .2TFA]")
0.04
>>> obs_value("NCC(=O)N1CCC[C@H]1C(=O)Nc1ccc2c(c1)Oc1cc(NC(=O)[C@@H]3CCCN3C(=O)CN)ccc1C21OC(=O)c2ccccc21 [GP, (H-Gly--Pro)2 Rho .2TFA]")
4.17
>>> obs_value("NC(=O)CC[C@H](N)C(=O)N[C@@H](CO)C(=O)Nc1ccc2c(c1)Oc1cc(NC(=O)[C@H](CO)NC(=O)[C@@H](N)CCC(N)=O)ccc1C21OC(=O)c2ccccc21 [QS, (H-L-Gln--Ser)2 Rho 110 .2TFA]")
0.06
>>> obs_value("C[C@@H](O)[C@H](N)C(=O)N1CCC[C@H]1C(=O)Nc1ccc2c(c1)Oc1cc(NC(=O)[C@@H]3CCCN3C(=O)[C@@H](N)[C@@H](C)O)ccc1C21OC(=O)c2ccccc21 [TP, (H-L-Thr--Pro)2 Rho 110 .2TFA]")
1.18

Recorded values, source patent US5698411A.
